All figures here come from ChEMBL document CHEMBL3600363.

Some molecules, each annotated with its measured log10 IC50.
- Study target: Phosphatidylinositol 4,5-bisphosphate 3-kinase catalytic subunit beta isoform (Homo sapiens)
- Sequence (P42338 whole entry, canonical isoform): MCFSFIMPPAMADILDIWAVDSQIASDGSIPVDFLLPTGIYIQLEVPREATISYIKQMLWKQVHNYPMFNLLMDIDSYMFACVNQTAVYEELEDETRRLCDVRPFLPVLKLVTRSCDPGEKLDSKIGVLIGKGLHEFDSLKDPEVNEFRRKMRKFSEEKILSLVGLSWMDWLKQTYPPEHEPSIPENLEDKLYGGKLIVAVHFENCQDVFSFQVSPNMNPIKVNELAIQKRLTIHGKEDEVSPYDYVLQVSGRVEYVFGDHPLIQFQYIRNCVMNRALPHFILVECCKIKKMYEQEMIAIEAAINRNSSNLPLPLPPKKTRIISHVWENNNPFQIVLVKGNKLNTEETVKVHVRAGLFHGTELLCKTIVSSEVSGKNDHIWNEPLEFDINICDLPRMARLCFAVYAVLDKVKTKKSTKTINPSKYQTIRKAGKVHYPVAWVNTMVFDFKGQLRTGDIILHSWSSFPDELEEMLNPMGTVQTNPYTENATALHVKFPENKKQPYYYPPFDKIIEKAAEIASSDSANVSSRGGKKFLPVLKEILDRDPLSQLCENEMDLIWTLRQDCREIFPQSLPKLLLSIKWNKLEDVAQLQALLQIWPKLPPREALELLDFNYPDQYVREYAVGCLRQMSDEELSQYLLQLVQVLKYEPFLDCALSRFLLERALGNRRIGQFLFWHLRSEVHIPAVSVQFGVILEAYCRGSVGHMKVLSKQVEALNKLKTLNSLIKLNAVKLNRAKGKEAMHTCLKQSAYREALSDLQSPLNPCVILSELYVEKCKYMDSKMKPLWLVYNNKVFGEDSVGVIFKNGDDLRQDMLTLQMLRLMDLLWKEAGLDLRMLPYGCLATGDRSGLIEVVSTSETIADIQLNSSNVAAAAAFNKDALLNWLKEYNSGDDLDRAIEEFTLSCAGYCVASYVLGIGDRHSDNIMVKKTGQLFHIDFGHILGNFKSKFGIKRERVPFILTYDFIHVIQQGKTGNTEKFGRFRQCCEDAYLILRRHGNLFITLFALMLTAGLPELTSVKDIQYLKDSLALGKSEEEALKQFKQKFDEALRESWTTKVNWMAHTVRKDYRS
- Assay notes: Inhibition of PI3Kbeta (unknown origin) pre-incubated for 20 mins before phosphatidylinositol 4, 5-bisphosphate substrate addition by kinase-glo plus luminescence assay
Measured metric: log10 IC50 (log10 of the value in µM)

* CCNc1ccc(-c2ccc3nc(N)sc3c2)cn1 | 1.10
* COCCOc1ccc(-c2ccc3nc(N)sc3c2)cn1 | 0.90
* CCSc1ccc(-c2ccc3nc(N)sc3c2)cn1 | 0.70
* Nc1nc2ccc(-c3cc[nH]c(=O)c3)cc2s1 | 0.80
* Cn1nccc1-c1ccc2nc(N)sc2c1 | 1.50
* CC(C)Oc1ccc(-c2ccc3nc(N)sc3c2)cn1 | 1.50
* CCCn1cc(-c2ccc3nc(N)sc3c2)cn1 | 1.10
* Cc1ccc(-c2ccc3nc(N)sc3c2)cn1 | 0.40
* CC(C)Oc1cncc(-c2ccc3nc(N)sc3c2)c1 | 0.10
* Nc1nc2ccc(-c3ccc(C(F)(F)F)nc3)cc2s1 | 0.60
* CCOc1ccc(-c2ccc3nc(N)sc3c2)cn1 | 0.80
